Value source: ChEMBL document CHEMBL1136677

- tgt: Delta-type opioid receptor (Rattus norvegicus)
- experimentalProtocol: Selectivity ratio of binding affinity of delta opioid receptor to mu opioid receptor

# mol, cmp, Ratio
rows = [
    ("Cc1cccc(C)c1C[C@@H](N)C(=O)N[C@H](CCCN=C(N)N)C(=O)N[C@@H](Cc1ccccc1)C(=O)NCCC(N)=O", ">", 370),
    ("NC(=O)CCNC(=O)[C@H](Cc1ccccc1)NC(=O)[C@@H](CCCN=C(N)N)NC(=O)[C@@H](N)Cc1ccc(O)cc1", "=", 2800),
    ("NC(=O)CCNC(=O)[C@H](Cc1ccccc1)NC(=O)[C@@H](CCCN=C(N)N)NC(=O)[C@@H](N)Cc1ccccc1", ">", 393),
    ("Cc1cccc(C)c1C[C@H](N)C(=O)N[C@H](CCCN=C(N)N)C(=O)N[C@@H](Cc1ccccc1)C(=O)NCCC(N)=O", "=", 41300),
    ("Cc1cccc(C)c1C[C@H](NC(=O)[C@@H](CCCN=C(N)N)NC(=O)[C@@H](N)Cc1c(C)cccc1C)C(=O)NCCC(N)=O", "=", 78100),
    ("Cc1cccc(C)c1C[C@@H](NC(=O)[C@@H](CCCN=C(N)N)NC(=O)[C@@H](N)Cc1ccc(O)cc1)C(=O)NCCC(N)=O", ">", 45700),
    ("Cc1cc(O)cc(C)c1C[C@H](N)C(=O)N[C@H](CCCN=C(N)N)C(=O)N[C@@H](Cc1ccccc1)C(=O)NCCC(N)=O", "=", 551),
]

* * *

- tgt: Delta-type opioid receptor (Mus musculus) (UniProt P32300)
- Sequence (P32300 whole entry): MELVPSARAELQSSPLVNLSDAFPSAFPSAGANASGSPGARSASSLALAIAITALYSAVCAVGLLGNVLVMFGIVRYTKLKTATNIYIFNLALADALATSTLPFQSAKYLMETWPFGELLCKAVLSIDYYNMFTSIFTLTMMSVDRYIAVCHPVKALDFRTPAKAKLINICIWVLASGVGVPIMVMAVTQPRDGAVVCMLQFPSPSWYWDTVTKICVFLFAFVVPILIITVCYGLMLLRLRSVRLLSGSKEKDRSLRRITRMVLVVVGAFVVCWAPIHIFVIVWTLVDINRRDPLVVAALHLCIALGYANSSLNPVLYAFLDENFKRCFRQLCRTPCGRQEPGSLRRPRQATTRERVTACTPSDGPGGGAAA
- experimentalProtocol: Selectivity ratio of IC50(MVD) to IC50(GPI) was determined
propertyLabel: Ratio

# mol, reportedValue
measured = [
    ("Cc1cccc(C)c1C[C@@H](N)C(=O)N[C@H](CCCN=C(N)N)C(=O)N[C@@H](Cc1ccccc1)C(=O)NCCC(N)=O", 4.6),
    ("Cc1cccc(C)c1C[C@@H](NC(=O)[C@@H](CCCN=C(N)N)NC(=O)[C@@H](N)Cc1ccc(O)cc1)C(=O)NCCC(N)=O", 15.4),
    ("NC(=O)CCNC(=O)[C@H](Cc1ccccc1)NC(=O)[C@@H](CCCN=C(N)N)NC(=O)[C@@H](N)Cc1ccccc1", 11.2),
    ("Cc1cc(O)cc(C)c1C[C@H](N)C(=O)N[C@H](CCCN=C(N)N)C(=O)N[C@@H](Cc1ccccc1)C(=O)NCCC(N)=O", 11.7),
    ("Cc1cccc(C)c1C[C@H](N)C(=O)N[C@H](CCCN=C(N)N)C(=O)N[C@@H](Cc1ccccc1)C(=O)NCCC(N)=O", 19),
    ("Cc1cccc(C)c1C[C@H](NC(=O)[C@@H](CCCN=C(N)N)NC(=O)[C@@H](N)Cc1c(C)cccc1C)C(=O)NCCC(N)=O", 18.2),
    ("NC(=O)CCNC(=O)[C@H](Cc1ccccc1)NC(=O)[C@@H](CCCN=C(N)N)NC(=O)[C@@H](N)Cc1ccc(O)cc1", 21.8),
    ("Cc1cccc(C)c1C[C@H](NC(=O)[C@@H](CCCN=C(N)N)NC(=O)[C@@H](N)Cc1ccc(O)cc1)C(=O)NCCC(N)=O", 16.7),
]

* * *

- tgt: Delta-type opioid receptor (Mus musculus)
- Sequence (P32300 whole entry): as above
- experimentalProtocol: Ability to inhibit electrically induced contractions of mouse vas deferens having delta opioid receptors tested in vitro
pIC50: −log10 of the molar value.

# mol, pIC50
rows = [
    ("NC(=O)CCNC(=O)[C@H](Cc1ccccc1)NC(=O)[C@@H](CCCN=C(N)N)NC(=O)[C@@H](N)Cc1ccccc1", 5.15),
    ("Cc1cccc(C)c1C[C@H](N)C(=O)N[C@H](CCCN=C(N)N)C(=O)N[C@@H](Cc1ccccc1)C(=O)NCCC(N)=O", 6.73),
    ("Cc1cc(O)cc(C)c1C[C@H](N)C(=O)N[C@H](CCCN=C(N)N)C(=O)N[C@@H](Cc1ccccc1)C(=O)NCCC(N)=O", 9.40),
    ("Cc1cccc(C)c1C[C@@H](NC(=O)[C@@H](CCCN=C(N)N)NC(=O)[C@@H](N)Cc1ccc(O)cc1)C(=O)NCCC(N)=O", 6.52),
    ("Cc1cccc(C)c1C[C@@H](N)C(=O)N[C@H](CCCNC(=N)N)C(=O)N[C@@H](Cc1ccccc1)C(=O)NCCC(N)=O", 5.83),
    ("Cc1cccc(C)c1C[C@H](NC(=O)[C@@H](CCCN=C(N)N)NC(=O)[C@@H](N)Cc1c(C)cccc1C)C(=O)NCCC(N)=O", 7.30),
    ("Cc1cccc(C)c1C[C@H](NC(=O)[C@@H](CCCN=C(N)N)NC(=O)[C@@H](N)Cc1ccc(O)cc1)C(=O)NCCC(N)=O", 7.55),
    ("N=C(N)NCCC[C@@H](NC(=O)[C@@H](N)Cc1ccc(O)cc1)C(=O)N[C@@H](Cc1ccccc1)C(=O)NCCC(N)=O", 6.94),
]
